Listed here: items and their measured Inhibitory activity on 11β-HSD 1, % CTL.
biological target: 11β-HSD 1 (Homo sapiens, UniProt P28845); construct: detecting cortisol generated from cortisterone by human liver microsomes; from tissue; host or cells: human liver microsomes; experiment: In vitro inhibition of 11β-HSD 1, HTRF detection of cortisol generated by human liver microsomes; format: biochemical; conditions: 1 μM test compound, 100% indicates no inhibition, zero or below zero indicates complete inhibition (relative to carbenoxolone)
Sequence (P28845 whole entry): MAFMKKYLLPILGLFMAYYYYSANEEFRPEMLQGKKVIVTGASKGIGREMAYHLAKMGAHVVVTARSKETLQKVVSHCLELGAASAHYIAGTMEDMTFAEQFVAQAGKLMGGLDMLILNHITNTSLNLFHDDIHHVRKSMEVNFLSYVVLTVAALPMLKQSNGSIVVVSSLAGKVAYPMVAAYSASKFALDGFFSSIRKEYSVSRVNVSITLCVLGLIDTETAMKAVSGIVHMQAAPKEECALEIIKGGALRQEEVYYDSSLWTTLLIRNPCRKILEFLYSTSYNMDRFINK
measurement label: Inhibitory activity on 11β-HSD 1, % CTL

INSERT INTO results (molecule, result) VALUES
  ('Cc1ccc([C@H]2C[C@H]3CC[C@@H](C2)N3C(=O)c2cscn2)cc1 [Example 13]', '62 % CTL'),
  ('Cn1cnc2cc(C(=O)N3[C@@H]4CC[C@H]3C[C@@H](c3ccc(F)cc3)C4)ccc21 [Example 66]', '77 % CTL'),
  ('Nc1ccc(C(=O)N2[C@@H]3CC[C@H]2C[C@@H](c2ccc(F)cc2)C3)cc1 [Example 177]', '−44 % CTL'),
  ('O=C(c1ccc2c(c1)OCCO2)N1C2CCC1CC(c1ccccc1F)C2 (stereo not shown) [Example 145]', '−37 % CTL'),
  ('Cc1cc(C(F)F)n2ncc(C(=O)N3[C@@H]4CC[C@H]3C[C@@H](c3ccc(F)cc3)C4)c2n1 [Example 4]', '87 % CTL'),
  ('NC(=O)c1ccc(C(=O)N2[C@@H]3CC[C@H]2C[C@@H](c2ccc(F)cc2)C3)c(F)c1 [Example 36]', '−28 % CTL'),
  ('O=C(c1ccc2c(c1)OCCO2)N1[C@@H]2CC[C@H]1C[C@@H](c1c(F)cccc1F)C2 [Example 161]', '−30 % CTL'),
  ('CC(=O)c1cccc(C(=O)N2[C@@H]3CC[C@H]2C[C@@H](c2ccc(F)cc2)C3)c1 [Example 124]', '59 % CTL'),
  ('O=C(c1n[nH]c2c1CCCC2)N1[C@@H]2CC[C@H]1C[C@@H](c1ccc(F)cc1)C2 [Example 23]', '83 % CTL'),
  ('O=C(c1ccccc1)N1[C@@H]2CC[C@H]1C[C@@H](c1ccc(F)cc1)C2 [Example 96]', '33 % CTL'),
  ('O=C(c1nsc(Cl)c1Cl)N1[C@@H]2CC[C@H]1C[C@@H](c1ccc(F)cc1)C2 [Example 30]', '88 % CTL'),
  ('O=C(c1ccc(F)c(F)c1)N1[C@@H]2CC[C@H]1C[C@@H](c1ccc(F)cc1)C2 [Example 77]', '47 % CTL'),
  ('O=C(c1ccc2c(c1)OCCO2)N1[C@@H]2CC[C@H]1C[C@@H](c1ccccc1O)C2 [Example 159]', '−55 % CTL'),
  ('O=C(c1cccc(N2CCCCS2(=O)=O)c1)N1C2CCC1CC(c1ccc(F)cc1)C2 (stereo not shown) [Example 40]', '98 % CTL'),
  ('COc1ccc([C@H]2C[C@H]3CC[C@@H](C2)N3C(=O)c2ccc3c(c2)OCCO3)cc1 [Example 134]', '−5 % CTL'),
  ('COc1ccc(C(=O)N2[C@@H]3CC[C@H]2C[C@@H](c2ccc(F)cc2)C3)cc1Cl [Example 165]', '2 % CTL');
